# Subject Of Test: CD33 (Sino Biological, Cat #12238-H08H) (UniProt P20138 18-259)
# Sequence (P20138 18-259 limits assumed): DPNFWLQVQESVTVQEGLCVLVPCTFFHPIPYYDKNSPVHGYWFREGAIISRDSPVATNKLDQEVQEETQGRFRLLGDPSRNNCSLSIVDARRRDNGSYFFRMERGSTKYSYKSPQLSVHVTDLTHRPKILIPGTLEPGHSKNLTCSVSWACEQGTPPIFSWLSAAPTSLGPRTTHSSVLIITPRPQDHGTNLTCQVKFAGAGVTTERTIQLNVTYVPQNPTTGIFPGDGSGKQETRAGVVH
# Test: BLI, IgG captured on anti-human Fc sensor, 50 nM CD33, pH 7.4 vs pH 5.0
# From the text: Multiple CD33-binding monoclonal antibodies have been described in the literature and can be used as a template for engineering pH-dependent binding (Hamann P R et al (2002) “Gemtuzumab ozogamicin, a potent and selective anti-CD33 antibody-calicheamicin conjugate for treatment of acute myeloid leukemia.” Bioconjug Chem 13(1):47-58). Gemtuzumab (Heavy chain SEQ ID NO: 1, Light chain SEQ ID NO: 2) was selected as a CD33-binding monoclonal antibody for pH engineering via histidine scanning. […]
Observed Property: binding result

>>> result_value("MYT0485 (antibody, V domains shown, IgG; gemtuzumab VH variant #4 (I29H)) VH: EVQLVQSGAEVKKPGSSVKVSCKASGYTHTDSNIHWVRQAPGQSLEWIGYIYPYNGGTDYNQKFKNRATLTVDNPTNTAYMELSSLRSEDTDFYYCVNGNPWLAYWGQGTLVTVSS VL: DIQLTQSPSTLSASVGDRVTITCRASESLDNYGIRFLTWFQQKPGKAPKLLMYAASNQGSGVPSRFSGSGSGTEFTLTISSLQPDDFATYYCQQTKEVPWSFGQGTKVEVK")
"binds"
>>> result_value("MYT0506 (antibody, V domains shown, IgG; gemtuzumab VH variant #25 (F64H)) VH: EVQLVQSGAEVKKPGSSVKVSCKASGYTITDSNIHWVRQAPGQSLEWIGYIYPYNGGTDYNQKHKNRATLTVDNPTNTAYMELSSLRSEDTDFYYCVNGNPWLAYWGQGTLVTVSS VL: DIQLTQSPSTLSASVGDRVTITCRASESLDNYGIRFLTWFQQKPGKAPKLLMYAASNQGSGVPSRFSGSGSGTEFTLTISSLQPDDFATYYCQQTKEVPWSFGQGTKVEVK")
"binds"
